Measurement Target: aryl hydrocarbon receptor (AhR) (Mus musculus (Mouse))
Sequence (P30561 10-805): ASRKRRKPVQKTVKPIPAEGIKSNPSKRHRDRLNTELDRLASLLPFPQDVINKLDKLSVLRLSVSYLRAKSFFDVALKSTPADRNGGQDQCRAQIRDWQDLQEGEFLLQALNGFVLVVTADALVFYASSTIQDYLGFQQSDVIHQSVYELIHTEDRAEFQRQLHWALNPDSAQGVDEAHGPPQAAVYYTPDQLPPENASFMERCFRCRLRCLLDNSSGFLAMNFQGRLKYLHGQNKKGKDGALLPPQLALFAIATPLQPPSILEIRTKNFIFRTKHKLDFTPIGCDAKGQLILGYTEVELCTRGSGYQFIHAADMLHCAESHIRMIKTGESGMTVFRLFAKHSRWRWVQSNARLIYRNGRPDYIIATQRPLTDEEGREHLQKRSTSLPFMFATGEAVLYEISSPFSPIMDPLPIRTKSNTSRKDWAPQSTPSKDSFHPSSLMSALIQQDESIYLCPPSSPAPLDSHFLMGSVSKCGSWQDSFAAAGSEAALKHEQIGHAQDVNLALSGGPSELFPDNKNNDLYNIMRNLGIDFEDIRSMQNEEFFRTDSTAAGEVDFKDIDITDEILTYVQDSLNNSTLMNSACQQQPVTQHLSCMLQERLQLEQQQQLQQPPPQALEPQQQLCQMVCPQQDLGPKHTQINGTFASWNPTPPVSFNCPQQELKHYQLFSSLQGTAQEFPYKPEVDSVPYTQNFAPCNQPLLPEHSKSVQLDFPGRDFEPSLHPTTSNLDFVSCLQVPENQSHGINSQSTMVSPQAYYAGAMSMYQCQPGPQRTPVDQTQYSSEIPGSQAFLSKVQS
Sequence (P53762 whole entry partner): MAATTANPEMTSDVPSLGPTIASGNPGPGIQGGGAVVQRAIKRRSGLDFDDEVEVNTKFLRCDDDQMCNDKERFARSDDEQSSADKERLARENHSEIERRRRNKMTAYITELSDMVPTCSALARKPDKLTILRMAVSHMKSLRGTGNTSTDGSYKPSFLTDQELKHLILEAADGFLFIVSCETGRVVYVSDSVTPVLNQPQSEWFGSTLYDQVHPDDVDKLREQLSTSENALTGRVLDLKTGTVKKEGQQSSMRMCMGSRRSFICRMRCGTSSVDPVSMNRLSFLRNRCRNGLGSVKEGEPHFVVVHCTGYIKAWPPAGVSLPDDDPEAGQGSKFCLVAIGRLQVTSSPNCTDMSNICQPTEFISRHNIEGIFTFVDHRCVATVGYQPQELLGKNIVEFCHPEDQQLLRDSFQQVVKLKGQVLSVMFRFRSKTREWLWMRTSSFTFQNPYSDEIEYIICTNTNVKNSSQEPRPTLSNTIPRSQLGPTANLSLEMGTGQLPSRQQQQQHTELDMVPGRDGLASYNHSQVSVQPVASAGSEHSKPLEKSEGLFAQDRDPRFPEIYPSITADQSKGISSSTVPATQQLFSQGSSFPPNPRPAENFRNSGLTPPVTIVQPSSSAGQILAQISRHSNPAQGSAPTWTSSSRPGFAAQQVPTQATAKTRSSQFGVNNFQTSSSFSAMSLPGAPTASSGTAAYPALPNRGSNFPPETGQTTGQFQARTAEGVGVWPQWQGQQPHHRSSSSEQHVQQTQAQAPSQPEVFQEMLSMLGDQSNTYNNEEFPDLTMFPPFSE
Measurement Description: AhR ligand screening: AhRE-luciferase reporter in transfected Hepa1 cells
Type: cell-based
Condition Notes: luciferase expression at 100 nM test compound relative to 100 nM benchmark compound 11-cl-BBQ
The recorded Fold relative to benchmark @ 100 nM of each item maps onto one of these classes: b0 = under 0.04 fold, b1 = from 0.04 fold up to 0.7 fold, b2 = 0.7 fold and over

query: Quick check: band for O=C(c1ccc2nc(-c3cccc4ccccc34)n(Cc3ccc(SC(F)(F)F)cc3)c2c1)N1CCCCC1
result: b0

query: Quick check: band for O=S(=O)(c1ccc(C(F)(F)F)cc1)n1c(-c2cccc3ccccc23)nc2cc(Cl)ccc21
result: b2

query: Quick check: band for O=C(c1ccc2nc(-c3cccc4ccccc34)n(Cc3ccc(F)cc3)c2c1)N1CCOCC1
result: b0

query: Quick check: band for O=C(c1ccc(F)c(F)c1)n1c(-c2cccc3ccccc23)nc2ccc(Br)cc21
result: b2

query: Quick check: band for COC(=O)c1ccc2nc(-c3cccc4ccccc34)n(C(=O)c3ccc(OC(F)(F)F)cc3)c2c1
result: b1

query: Quick check: band for N#Cc1ccc(S(=O)(=O)n2c(-c3cccc4ccccc34)nc3ccc(C(=O)N4CCCCC4)cc32)cc1
result: b0

query: Quick check: band for O=C(c1ccc(OC(F)(F)F)cc1)n1c(-c2cccc3ccccc23)nc2cc(Cl)ccc21
result: b2

query: Quick check: band for O=C(c1ccccc1)n1c(-c2cccc3ccccc23)nc2ccc(Cl)cc21
result: b2

query: Quick check: band for O=C(c1ccc(F)c(F)c1)n1c(-c2ccc(F)c(Cl)c2)nc2cc(Cl)ccc21
result: b1

query: Quick check: band for O=C1c2ccccc2-c2nc3cc(Cl)ccc3n21
result: b0

query: Quick check: band for O=C(c1ccc(F)cc1)n1c(-c2cccc3ccccc23)nc2ccc(Cl)cc21
result: b2

query: Quick check: band for O=C(C1CC1)n1c(-c2cccc3ccccc23)nc2cc(Cl)ccc21
result: b2

query: Quick check: band for O=C(c1ccccc1)n1c(-c2cccc(C(F)(F)F)c2)nc2cc(Cl)ccc21
result: b1

query: Quick check: band for O=C(c1c(F)cc(Br)cc1F)n1c(-c2cccc3ccccc23)nc2cc(Cl)ccc21
result: b2

query: Quick check: band for COc1ccc(Cn2c(-c3cccc4ccccc34)nc3ccc(Cl)cc32)cc1
result: b0

query: Quick check: band for CN1CCN(C(=O)c2ccc3c(c2)nc(-c2cccc4ccccc24)n3S(=O)(=O)c2cccc(F)c2)CC1
result: b0

query: Quick check: band for COC(=O)c1ccc2nc(-c3cccc4ccccc34)n(S(=O)(=O)c3ccc(Cl)cc3)c2c1
result: b1

query: Quick check: band for O=C(C1CCCCC1)n1c(-c2cccc3ccccc23)nc2cc(Cl)ccc21
result: b2

query: Quick check: band for CN1CCN(C(=O)c2ccc3c(c2)nc(-c2cccc4ccccc24)n3Cc2ccc(F)c(F)c2)CC1
result: b0

query: Quick check: band for O=C(c1ccc(SC(F)(F)F)cc1)n1c(-c2cccc3ccccc23)nc2ccc(Cl)cc21
result: b2

query: Quick check: band for COc1ccc(Cn2c(-c3cccc4ccccc34)nc3cc(Cl)ccc32)cc1
result: b0

query: Quick check: band for O=C(c1ccccc1)c1c[nH]c2ccc(Cl)cc12
result: b0

query: Quick check: band for COC(=O)c1ccc2c(c1)nc(-c1cccc3ccccc13)n2Cc1ccc(F)c(F)c1
result: b0

query: Quick check: band for O=C(c1ccc(F)c(F)c1)n1c(-c2cccc3ccccc23)nc2cc(F)ccc21
result: b1

query: Quick check: band for O=C(c1ccc(F)c(F)c1)n1c(-c2ccnc3ccccc23)nc2cc(Cl)ccc21
result: b1

query: Quick check: band for O=C(c1ccc2c(c1)nc(-c1cccc3ccccc13)n2S(=O)(=O)c1cccc(F)c1)N1CCCCC1
result: b1

query: Quick check: band for O=C(c1ccc(F)c(F)c1)n1c(-c2cccc3ccccc23)nc2cc(OC(F)(F)F)ccc21
result: b2

====

Measurement Description: Liver microsomal stability, mouse
Condition Notes: mouse, liver microsomes, pH 7.4
Quantity Measured: half-life at 1 μM (min)
Respond numerically; units are min and should not be typed.

query: Requested read-out: half-life at 1 μM. Entry: CCc1ccc(S(=O)(=O)n2c(-c3cccc4ccccc34)nc3ccc(Cl)cc32)cc1 [Compound 776]
result: 14.6

query: Requested read-out: half-life at 1 μM. Entry: O=C(c1cccc(Cl)c1Cl)c1c[nH]c2ccc(Cl)cc12 [Compound 889]
result: 33.9

query: Requested read-out: half-life at 1 μM. Entry: O=C(C1CC1)n1c(-c2cccc3ccccc23)nc2ccc(Cl)cc21 [Compound 774]
result: 19.3

query: Requested read-out: half-life at 1 μM. Entry: O=C(c1ccc(F)c(F)c1)n1c(-c2cccc3ccccc23)cc2cc(Cl)ccc21 [Compound 973]
result: 39.9

query: Requested read-out: half-life at 1 μM. Entry: O=C(c1ccc(SC(F)(F)F)cc1)c1c[nH]c2ccc(Cl)cc12 [Compound 884]
result: 13.9

query: Requested read-out: half-life at 1 μM. Entry: O=S(=O)(c1ccc2ccccc2c1)n1c(-c2cccc3ccccc23)nc2ccc(Cl)cc21 [Compound 786]
result: 13.4

query: Requested read-out: half-life at 1 μM. Entry: CN(C)c1ccc(C(=O)c2c[nH]c3ccc(Cl)cc23)cc1 [Compound 891]
result: 36.3

query: Requested read-out: half-life at 1 μM. Entry: O=C(c1ccccc1)c1c[nH]c2ccc(Cl)cc12 [Compound 892]
result: 21

query: Requested read-out: half-life at 1 μM. Entry: O=C(c1cccc2ccccc12)C1CN(C(=O)c2ccccc2)c2ccc(Cl)cc21 (stereo not drawn) [Compound 521]
result: 60.9

query: Requested read-out: half-life at 1 μM. Entry: COc1ccc(C(=O)c2c[nH]c3ccc(Cl)cc23)cc1 [Compound 894]
result: 37.6

query: Requested read-out: half-life at 1 μM. Entry: O=S(=O)(c1ccc(C(F)(F)F)cc1)n1c(-c2cccc3ccccc23)nc2ccc(Cl)cc21 [Compound 782]
result: 10.9

query: Requested read-out: half-life at 1 μM. Entry: O=S(=O)(c1ccc2ccccc2c1)n1c(-c2cccc3ccccc23)nc2cc(Cl)ccc21 [Compound 785]
result: 29.4

query: Requested read-out: half-life at 1 μM. Entry: O=S(=O)(c1ccc(C(F)(F)F)cc1)n1c(-c2cccc3ccccc23)nc2cc(Cl)ccc21 [Compound 781]
result: 12.1

query: Requested read-out: half-life at 1 μM. Entry: O=C(c1ccc(Cl)cc1Cl)c1c[nH]c2ccc(Cl)cc12 [Compound 890]
result: 28.2

query: Requested read-out: half-life at 1 μM. Entry: O=C(C1CC1)n1c(-c2cccc3ccccc23)cc2cc(Cl)ccc21 [Compound 972]
result: 15.9

query: Requested read-out: half-life at 1 μM. Entry: O=c1c2cccc3cccc(c32)c2nc3cc(Cl)ccc3n12 [Compound 362]
result: 9.8

query: Requested read-out: half-life at 1 μM. Entry: O=C(c1ccc(F)c(F)c1)n1c(-c2ccc(-c3ccccc3)cc2)nc2ccc(Cl)cc21 [Compound 644]
result: 70.5

query: Requested read-out: half-life at 1 μM. Entry: Clc1ccc2[nH]c(-c3cccc4ccccc34)cc2c1 [Compound 893, 5-chloro-2-(naphthalen-1-yl)-1H-indole]
result: 12.2

====

Measurement Target: CYP-1A2 (Homo sapiens (Human), UniProt P05177)
Sequence (P05177 whole entry): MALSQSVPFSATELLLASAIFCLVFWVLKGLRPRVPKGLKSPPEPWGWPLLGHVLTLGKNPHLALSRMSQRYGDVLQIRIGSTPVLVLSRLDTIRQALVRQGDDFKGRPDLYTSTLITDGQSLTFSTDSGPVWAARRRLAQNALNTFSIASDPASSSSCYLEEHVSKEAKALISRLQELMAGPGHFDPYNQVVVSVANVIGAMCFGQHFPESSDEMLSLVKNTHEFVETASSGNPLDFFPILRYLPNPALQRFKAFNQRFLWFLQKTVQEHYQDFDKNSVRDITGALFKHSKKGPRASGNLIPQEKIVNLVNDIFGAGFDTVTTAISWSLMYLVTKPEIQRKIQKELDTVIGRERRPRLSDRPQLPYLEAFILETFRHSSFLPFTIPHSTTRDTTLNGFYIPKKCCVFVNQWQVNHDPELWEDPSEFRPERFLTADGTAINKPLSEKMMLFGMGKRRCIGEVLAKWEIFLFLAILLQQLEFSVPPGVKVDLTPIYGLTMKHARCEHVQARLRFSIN
Measurement Description: CYP panel profile: P450 inhibition, CYP-1A2
Type: in vitro ADME
Condition Notes: human liver microsomes; read-out: CYP-1A2 IC50
Method: 5. CYP Panel Profile: P450 Inhibition From 10 mM stock solutions of test compounds, a dilution plate was prepared diluting serially starting from 5 mM up to 2 μM in Acetonitrile/DMSO or Methanol/DMSO Human liver Microsomes were added at required concentration as per specific CYP isoform in a deep well assay plate (1A2, 2C9, 2D6, 2B6, 2C8, 2C19, and 3A4). […]
Provide the reported pIC50 of each item.
The quantity pIC50 is defined as the negative base-10 logarithm of the molar concentration.

query: Requested read-out: pIC50. Entry: O=C(c1ccccc1)n1c(-c2cccc3ccccc23)nc2cc(Cl)c(Cl)cc21
result: 5.07

query: Requested read-out: pIC50. Entry: O=C(c1cccc2ccccc12)n1c(-c2cccc3ccccc23)nc2cc(Cl)ccc21
result: 5.92

query: Requested read-out: pIC50. Entry: O=C(c1ccccc1)n1c(-c2cccc3ccccc23)nc2ccc(Cl)cc21
result: 6.52

query: Requested read-out: pIC50. Entry: O=C(c1ccc(F)cc1)n1c(-c2cccc3ccccc23)nc2ccc(Cl)cc21
result: 6.40

====

Provide the reported Fold @ 100 nM of each item.
Measurement Target: aryl hydrocarbon receptor (AhR) (Mus musculus (Mouse))
Measurement Description: AhR ligand screening: AhRE-luciferase reporter in transfected Hepa1 cells
Assay type: cell-based
Condition Notes: fold change of luciferase expression at 100 nM test compound relative to vehicle (0.1% DMSO)
Please make sure the unit comes right after the number.

query: Requested read-out: Fold @ 100 nM. Entry: O=C(c1ccc2c(c1)nc(-c1cccc3ccccc13)n2S(=O)(=O)c1ccc2ccccc2c1)N1CCOCC1
result: 1 fold

query: Requested read-out: Fold @ 100 nM. Entry: O=C(c1ccc2c(c1)nc(-c1cccc3ccccc13)n2S(=O)(=O)c1cccc(F)c1)N1CCOCC1
result: 1 fold

query: Requested read-out: Fold @ 100 nM. Entry: O=C(c1ccc(F)c(F)c1)n1c(-c2csc3ccccc23)nc2ccc(Cl)cc21
result: 2 fold

query: Requested read-out: Fold @ 100 nM. Entry: COc1ccccc1S(=O)(=O)n1c(-c2cccc3ccccc23)nc2cc(C(=O)N3CCCCC3)ccc21
result: 1 fold

query: Requested read-out: Fold @ 100 nM. Entry: O=C(c1ccc2nc(-c3cccc4ccccc34)n(S(=O)(=O)c3ccc(Cl)cc3)c2c1)N1CCOCC1
result: 1 fold

query: Requested read-out: Fold @ 100 nM. Entry: O=C(c1ccc(SC(F)(F)F)cc1)n1c(-c2cccc3ccccc23)nc2ccc(Cl)cc21
result: 28 fold

query: Requested read-out: Fold @ 100 nM. Entry: O=C(c1ccc2nc(-c3cccc4ccccc34)n(S(=O)(=O)c3ccc(Cl)cc3)c2c1)N1CCCCC1
result: 1 fold

Data origin: patent US12473262B2
